Hi there, I'd appreciate the recorded shrunken log2 fold change for every entry that follows.
System: Escherichia coli TOP10;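 further: peptides expressed intracellularly from a pBAD plasmid library in pooled LB shake-flask culture, induced with 0.3% L-arabinose, DNA abundance read by NGS, three biological replicates, DESeq2 with apeglm shrinkage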
test-name: shrunken log2 fold change of peptide-encoding DNA abundance (4.5 h post-induction vs induction); higher = less antimicrobial activity (less host growth inhibition)
condition-parameters: time post-induction: 4.5 h; library: site-saturation at positions 5, 18, 19, 20

May I ask what shrunken log2 fold change has been recorded for RRIRERPPRLPRPRPRPQRHPRP ?
1.63

May I ask what shrunken log2 fold change has been recorded for RRIRDRPPRLPRPRPRPFASPRP ?
-0.0205

May I ask what shrunken log2 fold change has been recorded for RRIRGRPPRLPRPRPRPFITPRP ?
0.0604

May I ask what shrunken log2 fold change has been recorded for RRIRMRPPRLPRPRPRPSAQPRP ?
0.623

May I ask what shrunken log2 fold change has been recorded for RRIRPRPPRLPRPRPRPCENPRP ?
-0.0133

May I ask what shrunken log2 fold change has been recorded for RRIRVRPPRLPRPRPRPALGPRP ?
0.423

May I ask what shrunken log2 fold change has been recorded for RRIRVRPPRLPRPRPRPNKEPRP ?
0.0955

May I ask what shrunken log2 fold change has been recorded for RRIRNRPPRLPRPRPRPCMLPRP ?
-0.306

May I ask what shrunken log2 fold change has been recorded for RRIRERPPRLPRPRPRPRTMPRP ?
-0.135

May I ask what shrunken log2 fold change has been recorded for RRIRCRPPRLPRPRPRPPDDPRP ?
0.523

May I ask what shrunken log2 fold change has been recorded for RRIRNRPPRLPRPRPRPHKHPRP ?
-0.719

May I ask what shrunken log2 fold change has been recorded for RRIRKRPPRLPRPRPRPYCWPRP ?
-0.315

May I ask what shrunken log2 fold change has been recorded for RRIRERPPRLPRPRPRPFMNPRP ?
-0.00101

May I ask what shrunken log2 fold change has been recorded for RRIRMRPPRLPRPRPRPTDNPRP ?
0.188

May I ask what shrunken log2 fold change has been recorded for RRIRFRPPRLPRPRPRPHISPRP ?
-0.419

May I ask what shrunken log2 fold change has been recorded for RRIRFRPPRLPRPRPRPMMVPRP ?
-0.112

May I ask what shrunken log2 fold change has been recorded for RRIRFRPPRLPRPRPRPTIFPRP ?
-0.274

May I ask what shrunken log2 fold change has been recorded for RRIRPRPPRLPRPRPRPCDCPRP ?
0.0287

May I ask what shrunken log2 fold change has been recorded for RRIRYRPPRLPRPRPRPDYSPRP ?
-0.245

May I ask what shrunken log2 fold change has been recorded for RRIRNRPPRLPRPRPRPEYNPRP ?
-0.678

May I ask what shrunken log2 fold change has been recorded for RRIRYRPPRLPRPRPRPFHCPRP ?
-0.0983

May I ask what shrunken log2 fold change has been recorded for RRIRPRPPRLPRPRPRPTTWPRP ?
0.176
